system: A498 renal; assay: NCI-60 one-dose screen, 48 h (100 = growth as untreated, 0 = no growth, -100 = all killed); details: 10 µM unless noted
Compounds without any hit were thinned out: in the full panel of roughly 83,000, 20% have a hit.

Sample Smiles	growth [%]
O=C1C[C@@H](c2ccccc2)Oc2c(Cc3ccccc3O)c(O)c(Cc3cc(Cc4cc(Cc5ccccc5O)ccc4O)ccc3O)c(O)c21	98.3
Cc1ccc(-n2cc(/C=C/C(=O)c3ccc(S(C)(=O)=O)cc3)c(-c3ccc(S(C)(=O)=O)cc3)n2)cc1	84.6
CCOC(=O)Nc1cccc(-n2cnc3cc(-c4ccc(O)cc4)ccc32)c1	-25.1
C#CCOc1ccc(/C=N/Nc2nc(-c3cc4cc(Br)cc(Br)c4oc3=O)cs2)cc1	85.4

----------
test system: M14 melanoma; test: NCI-60 one-dose screen, 48 h; details: 10 µM unless noted
About 83,000 compounds went through this panel and 20% of them were active in at least one assay; those are over-represented in the sample as a whole. The source made the active and inactive calls. Rule for the calls: active = growth percent below 10; inactive = the rest.
Possible outcomes: t for active, f for inactive

Molecule	Class Name
O=C(Nc1cccc(-c2nc(-c3ccc(NC(=O)c4cccnc4)cc3Cl)no2)c1)Nc1ccc(NC(=O)C2CC2)c(C(F)(F)F)c1	t
Cn1c2ccc(Br)cc2c2c3c(c4c5cc(F)ccc5oc4c21)C(=O)N(O)C3=O	f
O=C(CN1C(=O)CSC1=O)Nc1ccc(C(=O)/C=C/c2cc3ccccc3nc2Cl)cc1	f
O=C1C[C@@H](c2ccccc2)Oc2c(Cc3ccccc3O)c(O)c(Cc3cc(Cc4cc(Cc5ccccc5O)ccc4O)ccc3O)c(O)c21	f
C/C(=N\NC(=S)Nc1ccc(Br)cc1)c1cc2ccccc2oc1=O	t
COc1cc2cc(Oc3ccc(NC(=O)c4cccc(C(F)(F)F)c4)cc3)c(C)nc2cc1OCCN(C)C	f
COc1ccc(OC)c([C@H]2c3[nH]c4ccccc4c3C[C@H]3C(=O)N(CCCCCCC(=O)NO)CC(=O)N23)c1	f
CNC(=O)c1cc(Oc2ccc3nc(NC(=O)c4ccc(CN5CCCN(C)CC5)c(C(F)(F)F)c4)sc3c2)ccn1	t
COc1cc(C2CC(c3ccc(Nc4nc(NCCO)nc(Nc5ccc(Cl)cc5)n4)cc3)=Nc3c(N)nc(N)nc3N2)cc(OC)c1OC (stereo not given)	f
O=C(Cn1cc(CN2C(=O)c3ccc([N+](=O)[O-])cc3C2=O)nn1)Nc1ccccc1Br	f
CNC(=O)c1cc(Oc2ccc3nc(NC(=O)c4ccc(CN5CCN(C)CC5)c(C(F)(F)F)c4)sc3c2)ccn1	t
CCc1ccc(NC(=O)N[C@@H](Cc2cccc(F)c2)C(=O)N[C@@H]2C(=O)N3CCC[C@H]3C(=O)N3CCCC[C@H]3C(=O)N[C@@H](CO)C(=O)N3C[C@H](C)C[C@H]3C(=O)O[C@H]2C)c(F)c1	f
COc1cc2c3c(n(CCCN4CCCCC4)c(=O)c2cc1OC)-c1cc2c(cc1C3=O)OCO2	t
COc1ccccc1N1CCN(C2=NN=C(c3cccc(Cl)c3)c3ccccc3C2)CC1	t
COc1ccc(-c2cc(-c3cccc4ccccc34)n3c(n2)nc2ccccc23)cc1OC	f
CC(C)=CCc1c(O)c(CC=C(C)C)c2c(c1O)C(=O)C1=C[C@@H]3C[C@H]4C(C)(C)O[C@@](C/C=C(\C)C(=O)O)(C3=O)[C@@]14O2	t
CCC(CC)n1c(=O)c(SC2=NC3C(NN2)N(CC)C(=O)N3CC)c(C(=O)O)c2ccccc21 (stereo not given)	f
C=C(C)[C@@H]1CC[C@]2(C(=O)ON)CC[C@]3(C)[C@H](CC[C@@H]4[C@@]5(C)C/C(=C/c6ccc(Br)cc6)C(=O)C(C)(C)[C@@H]5CC[C@]43C)[C@@H]12	f
C=C(C)[C@@H]1CC[C@]2(COS(C)(=O)=O)CC[C@]3(C)[C@H](CC[C@@H]4[C@@]5(C)CCCNC(C)(C)[C@@H]5CC[C@]43C)[C@@H]12	f
O=S(=O)(Nc1ccc(-c2nc(-c3cccc(O)c3)c(-c3ccnc(Br)c3)[nH]2)cc1)c1ccccc1	f
CC[C@@](C)(NC(=O)C(C)(C)NC(=O)[C@@H](NC(=O)[C@@H]1CCCN1C(=O)C(C)(C)NC(=O)[C@H](CC(C)C)NC(=O)CNC(=O)C(C)(C)NC(=O)[C@@H](NC(=O)C(C)(C)NC(=O)[C@H](CCC(N)=O)NC(=O)[C@H](C)NC(=O)C(C)(C)NC(=O)[C@H](C)NC(=O)C(C)(C)NC(=O)[C@@H]1CCCN1C(=O)C(C)(C)NC(C)=O)C(C)C)C(C)C)C(=O)N[C@@H](CCC(N)=O)C(=O)N[C@@H](CCC(N)=O)C(=O)N[C@H](CO)Cc1ccccc1	f
COc1cc(O)c2c(c1)/C=C/C[C@H](O)[C@H](O)C(=O)/C=C\C[C@H](C)OC2=O	t
CCCCOc1ccc(S(=O)(=O)N2CCN(c3nccc(N4CCOCC4)n3)CC2)cc1	f
CCOC(=O)C1=C(C)Nc2nc3ccccc3n2C1c1ccccc1 (stereo not given)	f
Cc1cc(=O)n2nc(-c3c[nH]c4ccccc34)sc2n1	f
CSc1nccc(-c2c(-c3ccc(F)c(OCc4ccc(F)cc4)c3)nc3sccn23)n1	f
Oc1ccc(CSc2nnc(-c3ccccc3)n2-c2ccccc2)c2cccnc12	t
N#Cc1ccc(S(=O)(=O)Nc2ccc(-c3cnc(N)[nH]3)cc2)cc1	f
COc1ccc(C(=O)c2c(N)c(C#N)cn2-c2cccc(OC)c2)cc1	f
C/C=C/[C@@H]1C=C[C@@H]2C[C@H](C)CC[C@H]2[C@]1(C)/C(O)=C1/C(=O)[C@H](CO)N(C)C1=O	f
